Tested Target: RnDYRK1A-kd (Rattus norvegicus, UniProt Q63470)
Construct: RnDYRK1A-kd (Rattus norvegicus, amino acids 1–499 including the kinase domain, recombinant, expressed in bacteria); made in house; host or cells: bacteria
Protocol Details: ADP-Glo kinase inhibition assay, DYRK1A
Format: biochemical
Condition: assumed on the basis of % of inhibition at 1 μM (less than 50%); read-out: DYRK1A IC50 (assumed)
pIC50: −log10 of the molar value.
Measured Endpoint: pIC50

INPUT: Name the value of pIC50 reported for O=[N+]([O-])c1c2ccncc2cc2cn[nH]c12 when tested on RnDYRK1A-kd (Rattus norvegicus, UniProt Q63470).
OUTPUT: < 6.00

Source: paper PMC9457941
